Answer each item with its documented EC50.
Molecular target: T1, Peptide-37 (cysteine pairing not given here; also: biotinylated, site not given here)
T1 peptide: VDFCYLYNWPVCSK
Experiment: ELISA, Fab on captured biotin-peptide
Where no end group is shown, it is not given here.
Give the value in nM but do not write nM after it.

Briefly, EC50 measured for TBD-22 (HC D109A) (Fab, V domains shown, Fab; also called HC D109A mutant) VH: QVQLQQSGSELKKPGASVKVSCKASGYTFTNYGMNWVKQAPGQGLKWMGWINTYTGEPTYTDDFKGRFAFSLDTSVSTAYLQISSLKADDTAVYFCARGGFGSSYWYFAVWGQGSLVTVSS VL: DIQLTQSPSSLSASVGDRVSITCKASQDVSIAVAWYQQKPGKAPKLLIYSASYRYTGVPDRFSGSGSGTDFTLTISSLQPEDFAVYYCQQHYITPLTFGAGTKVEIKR : 1.7

For this binder ( TBD-6 (LC I93A) (Fab, V domains shown, Fab; also called LC I93A mutant) VH: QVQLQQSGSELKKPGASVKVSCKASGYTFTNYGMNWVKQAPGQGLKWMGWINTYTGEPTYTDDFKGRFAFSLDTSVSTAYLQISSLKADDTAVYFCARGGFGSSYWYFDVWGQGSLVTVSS VL: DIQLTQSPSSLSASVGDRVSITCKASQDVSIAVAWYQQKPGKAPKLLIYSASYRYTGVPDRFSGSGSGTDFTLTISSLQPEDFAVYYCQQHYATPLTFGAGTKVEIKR ), measured EC50 is 9.3

Record TBD-17 (HC S104A) (Fab, V domains shown, Fab; also called HC S104A mutant) VH: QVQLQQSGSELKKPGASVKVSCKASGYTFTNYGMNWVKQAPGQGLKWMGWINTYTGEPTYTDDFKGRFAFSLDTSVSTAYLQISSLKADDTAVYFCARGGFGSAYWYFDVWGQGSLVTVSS VL: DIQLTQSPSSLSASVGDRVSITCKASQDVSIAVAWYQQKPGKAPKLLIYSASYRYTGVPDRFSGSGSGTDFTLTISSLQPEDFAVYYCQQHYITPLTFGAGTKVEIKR . Reported EC50: 19.5

The recorded EC50 for entry TBD-21 (HC F108A) (Fab, V domains shown, Fab; also called HC F108A mutant) VH: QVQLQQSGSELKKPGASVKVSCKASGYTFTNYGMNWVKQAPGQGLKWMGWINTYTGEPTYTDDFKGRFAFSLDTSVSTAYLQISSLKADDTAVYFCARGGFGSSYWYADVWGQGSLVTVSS VL: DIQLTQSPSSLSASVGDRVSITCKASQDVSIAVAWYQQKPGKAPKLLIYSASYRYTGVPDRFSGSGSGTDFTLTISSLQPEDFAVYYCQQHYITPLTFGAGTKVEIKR equals 27.3

Just so you know, measured EC50 for TBD-11 (HC R98A) (Fab, V domains shown, Fab; also called HC R98A mutant) VH: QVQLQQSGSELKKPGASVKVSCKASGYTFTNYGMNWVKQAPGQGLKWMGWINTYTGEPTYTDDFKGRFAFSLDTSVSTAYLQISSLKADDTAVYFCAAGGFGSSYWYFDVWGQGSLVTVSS VL: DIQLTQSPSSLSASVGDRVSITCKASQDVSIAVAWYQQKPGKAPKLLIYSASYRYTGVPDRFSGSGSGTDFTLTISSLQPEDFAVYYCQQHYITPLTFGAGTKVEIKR came out at 149

# EC50 of TBD-1 wt (Fab, V domains shown, Fab; the heavy chain entry is VH-CH1; also called wild-type anti-TROP2 Fab (hRS7); TROP2 Fab) VH: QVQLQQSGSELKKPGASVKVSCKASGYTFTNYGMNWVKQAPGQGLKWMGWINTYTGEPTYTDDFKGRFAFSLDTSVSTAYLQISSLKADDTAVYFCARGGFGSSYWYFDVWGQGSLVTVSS VL: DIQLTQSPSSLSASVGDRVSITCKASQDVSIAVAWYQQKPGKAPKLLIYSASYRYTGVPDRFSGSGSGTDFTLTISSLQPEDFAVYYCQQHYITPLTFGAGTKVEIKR = 31.7
